# assay target: rat MASP-2 (in rat serum) (rat, UniProt Q9JJS8 20-685)
# Sequence (Q9JJS8 20-685 limits assumed): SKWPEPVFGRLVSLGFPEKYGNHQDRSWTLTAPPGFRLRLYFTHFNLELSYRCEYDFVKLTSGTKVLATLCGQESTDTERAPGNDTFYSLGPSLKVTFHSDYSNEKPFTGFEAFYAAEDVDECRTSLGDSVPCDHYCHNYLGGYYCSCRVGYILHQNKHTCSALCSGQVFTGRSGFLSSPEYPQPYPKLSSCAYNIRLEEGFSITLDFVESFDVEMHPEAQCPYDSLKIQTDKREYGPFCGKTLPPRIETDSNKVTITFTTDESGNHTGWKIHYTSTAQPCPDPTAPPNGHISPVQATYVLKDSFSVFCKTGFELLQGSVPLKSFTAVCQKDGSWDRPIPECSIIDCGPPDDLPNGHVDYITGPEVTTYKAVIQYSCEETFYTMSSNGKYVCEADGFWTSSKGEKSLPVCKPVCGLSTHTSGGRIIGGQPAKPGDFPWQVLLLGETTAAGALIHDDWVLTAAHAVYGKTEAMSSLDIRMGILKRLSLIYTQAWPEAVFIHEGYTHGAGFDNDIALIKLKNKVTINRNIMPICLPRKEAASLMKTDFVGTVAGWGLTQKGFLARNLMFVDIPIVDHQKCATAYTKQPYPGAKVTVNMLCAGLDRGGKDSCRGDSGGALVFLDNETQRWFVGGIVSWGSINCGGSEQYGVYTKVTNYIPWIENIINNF
# experiment description: cell-based or functional assay
Where no end group is shown, it is not given here.
recorded endpoint: Relative potency, lectin pathway, rat serum (fold vs EVO2)

>>> recorded_value("EVO24 (designed binder, not fully specified; cysteine pairing not given here, Modified TFPI-D2 Kunitz domain; made as m1) KPDFCFLENDPGPCRALKRRYFYNNQTKQCERFYYGGCLGNMNNFETLEECKNICEDG")
16.2
>>> recorded_value("EVO22 (designed binder, not fully specified; cysteine pairing not given here, Modified TFPI-D2 Kunitz domain; made as m1) KPDFCFLENDPGPCRALKRRYFYNNQTKQCERFYYGGCLGNMNNFVTLEECKNICEDG")
10.8
>>> recorded_value("EVO22b (designed binder, not fully specified; cysteine pairing not given here, Modified TFPI-D2 Kunitz domain; made as m1) KPDFCFLENDPGPCRALARRYFYNNQTKQCERFYYGGCLGNMNNFVTLEECKNICEDG")
11
>>> recorded_value("EVO22a (designed binder, Modified TFPI-D2 Kunitz domain; made as m1) KPDFCFLENDPGPCRAAKRRYFYNNQTKQCERFYYGGCLGNMNNFVTLEECKNICEDG")
10
